Assay: chemical genetic growth profiling, strain panel (AID 1159580);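 further: tested at 20 µM; growth read once vehicle control cultures reached saturation at 30 °C; 1 = growth at the plate median or of vehicle wells; lower values mean less growth of the strain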
Conditions: S. cerevisiae deletion strains, growth OD, locus YOR270C, strain vph1
Screen size: about 5,500 compounds; about 2,000 (36%) were called active. Another 18% or so got no clear call; they are omitted. No stated cut-off is given here; in the data, active means normalized growth mostly below about 0.91 (no sharp cut-off); inconclusive means no clear call, values can overlap the other calls; inactive means mostly above about 0.92. The list shows a part of the results.
Bench note: report the call from active, inactive

Use these answered entries as a reference point.
compound	label_class
CCCCC(=O)O[C@H]1CCC2C3CCc4cc(O)ccc4C3CC[C@@]21C (stereo partly drawn)	inactive
Nc1ncnc2c1ncn2[C@@H]1O[C@H](CO)[C@@H](O)[C@@H]1O	inactive
COc1cc2ccc(=O)oc2c2ccoc12	inactive

Lab note: next compound to report on.
-- ask Record request — test call for CCCCC(=O)N(Cc1ccc(-c2ccccc2-c2nn[nH]n2)cc1)[C@H](C(=O)O)C(C)C
-- reply inactive

---

Test: chemical genetic growth profiling, strain panel (AID 1159580)
Conditions: S. cerevisiae deletion strains, growth OD, locus YLR027C, strain aat2, active compounds read low
In all, about 5,500 compounds went through this assay and about 2,000 (36%) were called active. About 18% were inconclusive and are not listed. The list shows a part of the results.
Field: normalized growth. Provide a value for each of the compounds that follow.
Answers are plain numbers.

These recorded examples may help you get a feel for the data.
compound	measurement_type	data_value
Cn1c([N+](=O)[O-])cnc1COC(N)=O	normalized growth	1.01
Cc1nccc2c1[nH]c1ccccc12	normalized growth	0.995
CCCC(=O)Nc1ncnc2c1ncn2C1O[C@@H]2COP(=O)(O)O[C@H]2[C@H]1OC(=O)CCC (some centres not stated)	normalized growth	0.999

For every item in the list below, what is its measured normalized growth?
1. C[C@H]1C(=O)O[C@@H]2CCN3CC=C(COC(=O)[C@](C)(O)[C@]1(C)O)[C@H]23
2. CC(C)=CCOc1cc2oc(=O)ccc2cc1O
3. CC(=O)OC1CCC23C(=O)OC45CCC(C6=CC(=O)OC6)C4(C)CCC2C5CCC3(O)C1 (configuration not stated)
4. COc1cc2ccc(=O)oc2c(OC)c1OC
5. FC(F)(F)COCC(F)(F)F
6. CC(C)=CCOc1c2occc2cc2ccc(=O)oc12
7. C[N+]1(C)CCc2cc3c(cc2[C@H]1C1OC(=O)c2c1ccc1c2OCO1)OCO3 (some centres not stated)

-- reply
1. 0.993
2. 0.939
3. 0.988
4. 0.987
5. 1.02
6. 0.893
7. 1.01

For every item in the list below, what is its measured normalized growth?
1. O=c1ccc2cc(O[C@@H]3O[C@H](CO)[C@@H](O)[C@H](O)[C@H]3O)c(O)cc2o1
2. COc1ccc2[nH]cc(CCNC(C)=O)c2c1
3. COC(=O)C[C@H]1C(C)(C)[C@@H](OC(C)=O)[C@@H]2CC3C4CC(=O)O[C@@H](c5ccoc5)[C@]4(C)CCC3[C@@]1(C)C2=O (some centres not stated)
4. CC(C)CCCC(C)[C@H]1CCC2C3CC[C@H]4CC(=O)CC[C@]4(C)C3CC[C@@]21C (some centres not stated)
5. C[N+]1(C)C2CC[C@H]1CC(OC(=O)C(O)c1ccccc1)C2 (some centres not stated)
6. COc1ccc2ccc(=O)oc2c1CC=C(C)C
7. O=C(O)CCCN1C(=O)c2cccc3cccc(c23)C1=O

-- reply
0.983
0.975
0.999
0.988
1
0.845
1.01

For every item in the list below, what is its measured normalized growth?
1. COc1cc2ccc(=O)oc2c2ccoc12
2. O=c1cc(-c2ccc(O)cc2)oc2cc(O[C@@H]3O[C@H](CO)[C@@H](O)[C@H](O)[C@H]3O[C@@H]3OC[C@](O)(CO)[C@H]3O)cc(O)c12
3. Cn1c(=O)[nH]c(=O)c2[nH]cnc21

-- reply
1. 0.911
2. 1.01
3. 0.974

For every item in the list below, what is its measured normalized growth?
1. COc1ccc2c(c1)[nH]c1c(C)nccc12
2. COc1cc2ccc(=O)oc2cc1O

-- reply
[0.992, 0.989]

---

Assay: chemical genetic growth profiling, strain panel (AID 1159580)
Details: S. cerevisiae deletion strains, growth OD, locus YOR290C, strain snf2, active compounds read low
In all, about 5,500 compounds went through this assay and about 2,000 (36%) were called active. Another 18% or so got no clear call; they are omitted. Some of the results follow.
measurement_type: normalized growth

These recorded examples may help you get a feel for the data.
compound	normalized growth
CCCc1nc(C(C)(C)O)c(C(=O)OCc2oc(=O)oc2C)n1Cc1ccc(-c2ccccc2-c2nn[nH]n2)cc1	0.983 (inactive)
C[C@]12C=CC(=O)C=C1CCC1C2CC[C@]2(C)C(=O)CCC12 (some centres undefined)	0.943 (inactive)
CCOc1nc2cccc(C(=O)OC(C)OC(=O)OC3CCCCC3)c2n1Cc1ccc(-c2ccccc2-c2nn[nH]n2)cc1 (centres undefined)	1.02 (inactive)

For the next question, use this compound.
-- ask Requested read-out: normalized growth. Entry: CC(C)CCCC(C)[C@H]1CCC2C3CC[C@H]4CC(=O)CC[C@]4(C)C3CC[C@@]21C (some centres undefined)
-- reply 0.976 (inactive)

---

Assay: chemical genetic growth profiling, strain panel (AID 1159580);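 further: tested at 20 µM; growth read once vehicle control cultures reached saturation at 30 °C; 1 = growth at the plate median or of vehicle wells; lower values mean less growth of the strain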
Settings: S. cerevisiae deletion strains, growth OD, locus YDR297W, strain sur2, active compounds read low
The whole screen tested about 5,500 compounds, of which about 2,000 (36%) were called active. Roughly 18% stayed inconclusive and do not appear here. Some of the results follow.
measurement_type: normalized growth
Give bare numbers.

These recorded examples may help you get a feel for the data.
molecule	measurement_type	data_value
Cc1cccc(N(C)C(=S)Oc2ccc3ccccc3c2)c1	normalized growth	0.984
COc1ccc2c(=O)c(CC(=O)O)coc2c1	normalized growth	0.965
COc1cc(OC)c2c(c1Cl)OC1(C2=O)C(O)=CC(=O)CC1C (configuration not stated)	normalized growth	1.01
Cc1nccc2c1[nH]c1ccccc12	normalized growth	0.976
CCNc1nc(Cl)nc(NC(C)C)n1	normalized growth	1
COc1cc(O)c(C(=O)O)c(O)c1	normalized growth	1
O=C(O)CCCN1C(=O)c2cccc3cccc(c23)C1=O	normalized growth	1.01
Cn1cnc([N+](=O)[O-])c1Sc1ncnc2nc[nH]c12	normalized growth	1.03

For every item in the list below, what is its measured normalized growth?
1. COc1ccc2c(c1)[nH]c1c(C)nccc12
2. CC(=O)OC1CCC23C(=O)OC45CCC(C6=CC(=O)OC6)C4(C)CCC2C5CCC3(O)C1 (configuration not stated)

-- reply
0.999
0.987

For every item in the list below, what is its measured normalized growth?
1. CC1(C)C[C@@H]2C(=O)CC[C@H]3O[C@]3(C)CC[C@H]21
2. C[C@]12CCC3C(CC[C@H]4CC(=O)CC[C@]34C)C1CCC2=O (some centres not stated)

-- reply
[1.01, 0.939]

---

Assay: chemical genetic growth profiling, strain panel (AID 1159580);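 further: tested at 20 µM; growth read once vehicle control cultures reached saturation at 30 °C; 1 = growth at the plate median or of vehicle wells; lower values mean less growth of the strain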
Details: S. cerevisiae deletion strains, growth OD, locus YLR342W, strain FKS1, active compounds read low
The campaign covered roughly 5,500 compounds. About 2,000 (36%) were called active. Inconclusive results (about 18%) are left out. The list shows a part of the results.
measurement_type: normalized growth
Give bare numbers.

compound	data_value
O=C(/C=C/C(=O)Oc1ccccc1C(=O)O)Oc1ccccc1C(=O)O	0.983

For every item in the list below, what is its measured normalized growth?
1. CC1=C2CCC3C(CC[C@]4(C)C(=O)CCC34)[C@@]2(C)CCC1=O (some centres undefined)
2. C[C@]12CCC3C(CC[C@H]4C[C@@H](O)CC[C@]34C)C1CCC2=O (some centres undefined)

-- reply
0.951
0.995

For every item in the list below, what is its measured normalized growth?
1. C[C@H]1C(=O)O[C@@H]2CCN3CC=C(COC(=O)[C@](C)(O)[C@]1(C)O)[C@H]23
2. O=c1cc(-c2ccc(O)cc2)oc2cc(O[C@@H]3O[C@H](CO)[C@@H](O)[C@H](O)[C@H]3O[C@@H]3OC[C@](O)(CO)[C@H]3O)cc(O)c12
3. COc1ccc2c(c1)[nH]c1c(C)nccc12

-- reply
0.997
1.01
1

For every item in the list below, what is its measured normalized growth?
1. CCS(=O)(=O)CCn1c([N+](=O)[O-])cnc1C
2. CCOc1nc2cccc(C(=O)OC(C)OC(=O)OC3CCCCC3)c2n1Cc1ccc(-c2ccccc2-c2nn[nH]n2)cc1 (centres undefined)
3. CCCCC(=O)N(Cc1ccc(-c2ccccc2-c2nn[nH]n2)cc1)[C@H](C(=O)O)C(C)C

-- reply
1: 1.02; 2: 1.02; 3: 1.02

---

Assay: chemical genetic growth profiling, strain panel (AID 1159580);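 further: tested at 20 µM; growth read once vehicle control cultures reached saturation at 30 °C; 1 = growth at the plate median or of vehicle wells; lower values mean less growth of the strain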
Details: S. cerevisiae deletion strains, growth OD, locus YEL061C, strain CIN8 (second series), active compounds read low
In all, about 5,500 compounds went through this assay and about 2,000 (36%) were called active. Not shown: some 18% with an inconclusive outcome. This is one part of the list.
measurement_type: normalized growth
Numbers only.

These recorded examples may help you get a feel for the data.
compound	measurement_type	data_value
COc1cc2ccc(=O)oc2c(OC)c1OC	normalized growth	0.996
CC1(C)S[C@@H]2[C@H](NC(=O)COc3ccccc3)C(=O)N2[C@H]1C(=O)O	normalized growth	0.986
c1ccc2c(c1)[nH]c1cnccc12	normalized growth	1.01
COc1cc(OC)c2c(=O)c(-c3ccc4c(c3)OCO4)coc2c1	normalized growth	0.986
CC(=O)O[C@H]1CC2CCC3C(CC[C@@]4(C)C3C[C@H]([N+]3(C)CCCCC3)[C@@H]4OC(C)=O)[C@@]2(C)C[C@@H]1[N+]1(C)CCCCC1 (some centres undefined)	normalized growth	1.02
Cc1nccc2c1[nH]c1ccccc12	normalized growth	0.944

For every item in the list below, what is its measured normalized growth?
1. COc1c2occc2cc2ccc(=O)oc12
2. CC(=O)Oc1ccc2c(c1)CCC1C2CC[C@@]2(C)C1CC[C@@H]2OC(C)=O (some centres undefined)
3. COc1ccc2ccc(=O)oc2c1CC=C(C)C
4. O=C1c2ccccc2-c2cccc3cccc1c23
5. CC(=O)O[C@@H]1CC2C(C)(C)[C@H](O)C[C@H](O)[C@]2(C)C2CC[C@@]3(C)C(=CC(=O)O[C@H]3c3ccoc3)[C@@]21C (some centres undefined)
6. OC[C@@H](O)C(O[C@@H]1O[C@H](CO)[C@H](O)[C@H](O)[C@H]1O)[C@H](O)[C@@H](O)CO (some centres undefined)

-- reply
1. 0.981
2. 0.992
3. 0.921
4. 0.953
5. 0.995
6. 0.995
